Tested on: MDR1
Assay Name: Efflux ratio of permeability of the compound in pig LLC-PK1 cells expressing MDR1
Type: ADME, cell-based, Sus scrofa

# Compound String, efflux ratio
rows = [
    ("CCOC(=O)c1sc(-c2ccncc2)nc1O", 1),
]

###

Assay Name: Volume of distribution at steady state in Sprague-Dawley rat at 2 mg/kg, iv
Type: ADME, organism-based
Set-up: dose 2 mg/kg, route intravenous
Condition: in vivo, read-out: Vdss

# Compound String, Vd, L/kg
data = [
    ("NC(=O)c1sc(-c2ccnc(N)n2)nc1-c1ccc(Cl)cc1Cl", 4.43),
]

###

Test System: CDC7/DBF4 (Cell division cycle 7-related protein kinase/Activator of S phase kinase) (Homo sapiens, UniProt O00311)
Sequence (Q9UBU7 whole entry): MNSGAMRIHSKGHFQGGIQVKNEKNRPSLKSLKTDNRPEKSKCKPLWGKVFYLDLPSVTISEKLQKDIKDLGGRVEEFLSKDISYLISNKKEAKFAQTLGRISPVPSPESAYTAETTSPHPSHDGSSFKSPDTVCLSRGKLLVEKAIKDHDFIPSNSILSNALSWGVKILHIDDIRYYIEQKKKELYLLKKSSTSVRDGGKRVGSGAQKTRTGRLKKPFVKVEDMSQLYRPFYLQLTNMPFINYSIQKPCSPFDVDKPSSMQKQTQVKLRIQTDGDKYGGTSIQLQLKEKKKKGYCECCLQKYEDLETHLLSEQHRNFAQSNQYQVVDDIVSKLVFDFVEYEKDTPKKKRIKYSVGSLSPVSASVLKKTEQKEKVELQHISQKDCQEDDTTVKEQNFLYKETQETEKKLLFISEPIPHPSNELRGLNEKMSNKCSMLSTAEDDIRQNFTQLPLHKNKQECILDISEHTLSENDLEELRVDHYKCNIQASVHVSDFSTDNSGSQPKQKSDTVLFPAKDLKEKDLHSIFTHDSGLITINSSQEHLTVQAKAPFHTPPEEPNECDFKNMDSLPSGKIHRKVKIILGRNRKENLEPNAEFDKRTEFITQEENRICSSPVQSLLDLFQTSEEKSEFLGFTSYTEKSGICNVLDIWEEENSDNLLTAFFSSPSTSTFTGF
Sequence (O00311 whole entry): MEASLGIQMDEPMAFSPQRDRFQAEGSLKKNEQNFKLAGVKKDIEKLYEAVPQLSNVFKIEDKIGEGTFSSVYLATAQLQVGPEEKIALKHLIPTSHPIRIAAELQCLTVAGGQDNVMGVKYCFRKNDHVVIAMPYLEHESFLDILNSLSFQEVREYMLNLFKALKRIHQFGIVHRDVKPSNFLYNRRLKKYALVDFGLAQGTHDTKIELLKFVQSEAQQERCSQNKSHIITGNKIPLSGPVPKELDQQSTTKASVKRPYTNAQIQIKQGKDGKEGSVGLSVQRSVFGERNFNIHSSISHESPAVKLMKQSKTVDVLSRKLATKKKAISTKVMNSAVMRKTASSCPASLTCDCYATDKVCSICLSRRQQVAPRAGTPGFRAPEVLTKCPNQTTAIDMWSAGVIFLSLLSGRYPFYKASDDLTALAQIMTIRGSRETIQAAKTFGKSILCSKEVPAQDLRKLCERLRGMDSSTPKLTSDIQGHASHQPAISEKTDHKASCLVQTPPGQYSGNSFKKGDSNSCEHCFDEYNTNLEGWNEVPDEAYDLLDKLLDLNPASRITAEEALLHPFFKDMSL
Assay Name: Inhibition of Cdc7/Dbf4 (unknown origin) using 0.023 uM of ATP as substrate by AlphaScreen assay
Format: protein-complex assay
pIC50: −log10 of the molar value.

# Compound String, pIC50
records = [
    ("CCOC(=O)c1sc(-c2ccncc2)nc1O", 6.52),
]

###

Test System: CDC7/DBF4 (Cell division cycle 7-related protein kinase/Activator of S phase kinase) (Homo sapiens)
Assay Name: Inhibition of Cdc7/Dbf4 (unknown origin) using 0.047 uM of ATP as substrate by AlphaScreen assay
Assay type: protein-complex assay
pIC50: −log10 of the molar value.

# Compound String, pIC50
data = [
    ("CCOC(=O)c1sc(-c2ccncc2)nc1O", 6.39),
]

###

Test System: CDC7/DBF4 (Cell division cycle 7-related protein kinase/Activator of S phase kinase) (Homo sapiens) (UniProt Q9UBU7+O00311)
Sequence (O00311 whole entry, looked up): as the sequence (O00311 whole entry) above
Sequence (Q9UBU7 whole entry, looked up): as the sequence (Q9UBU7 whole entry) above
Assay Name: Ratio of IC50 for Cdc7/Dbf4 in human HCT116 cells to IC50 for Cdc7/Dbf4 (unknown origin)
Assay type: cell-based
Condition: HCT-116
Observed Property: Ratio IC50

# Compound String, Observed Property, Reported Measurement
records = [
    ("COc1ccc(-c2nc(-c3ccnc(N)n3)sc2C(N)=O)c(Cl)c1", "Ratio IC50", "> 30"),
    ("NC(=O)c1sc(-c2ccncc2)nc1-c1ccc(Cl)cc1Cl", "Ratio IC50", "> 100"),
    ("COc1nc(-c2ccncc2)sc1C(N)=O", "Ratio IC50", "> 100"),
    ("NC(=O)c1sc(-c2ccncc2)nc1-c1ccccc1", "Ratio IC50", "> 100"),
]

###

Test System: Cyclin-dependent kinase 2/cyclin E1 (Homo sapiens)
Assay Name: Inhibition of CDK2/Cyclin-E (unknown origin) using maltose binding protein as substrate by HTRF assay
# key: entry, value: IC50

# Compound String, Test System, IC50
data = [
    ("CCOC(=O)c1sc(-c2ccncc2)nc1-c1ccc(OC)cc1Cl", "Cyclin-dependent kinase 2/cyclin E1 (Homo sapiens)", "> 125 µM"),
    ("c1ccc(-c2nc(-c3ccncc3)sc2-c2nnco2)cc1", "Cyclin-dependent kinase 2/cyclin E1 (Homo sapiens)", "> 125 µM"),
    ("O=C(NCc1ccccc1)c1sc(-c2ccncc2)nc1O", "Cyclin-dependent kinase 2/cyclin E1 (Homo sapiens)", "52.1 µM"),
    ("COc1ccc(-c2nc(-c3ccnc(N)n3)sc2C(N)=O)c(Cl)c1", "Cyclin-dependent kinase 2/cyclin E1 (Homo sapiens)", "10.6 µM"),
    ("O=C(O)c1sc(-c2ccncc2)nc1-c1ccccc1", "Cyclin-dependent kinase 2/cyclin E1 (Homo sapiens)", "> 125 µM"),
    ("CCOC(=O)c1sc(-c2ccccc2)nc1O", "Cyclin-dependent kinase 2/cyclin E1 (Homo sapiens)", "> 125 µM"),
    ("CCOC(=O)c1sc(-c2ccncc2)nc1O", "Cyclin-dependent kinase 2/cyclin E1 (Homo sapiens)", "> 125 µM"),
]

The measurements presented in this section are drawn from ChEMBL document CHEMBL3259739.
